- Subject of test: HIV-1 protease (Human immunodeficiency virus type 1 group M subtype B)
- Method notes: biochemical
- Condition summary: Table I; Dose 3.300 μM; read-out: Protease % Inhib
Record form. Attribute: inhibition at 3.3 µM. Fill in for each entry.
Give bare numbers, in %.

Recorded results for 10 compounds are shown here.
>>> print(df.to_string())
                                   compound  value_observed
0  CCCC1(CCC)CC(O)=C(C(CC)c2cccc(NS(=O)(=O)c3ccc(C#N)cc3)c2)C(=O)O1 (stereo not drawn)            97.6
1  O=c1oc2c(c(O)c1C(c1cccc(CS(=O)(=O)c3ccc(F)cc3)c1)C1CC1)CCCCCC2 (stereo not drawn)            91.1
2  CCC(Cc1ccccc1)c1cc(O)c(C(c2cccc(NS(=O)(=O)c3cn(C)cn3)c2)C2CC2)c(=O)o1 (stereo not drawn)             101
3  CCC(CC1CCCOC1)c1cc(O)c(C(c2cccc(NS(=O)(=O)c3cccc4cccnc34)c2)C2CC2)c(=O)o1 (stereo not drawn) [Example 145A]             115
4  CCCC1(CCc2ccccc2)CC(O)=C(C(c2cccc(NS(=O)(=O)c3ccc(F)cc3)c2)C2CC2)C(=O)O1 (stereo not drawn)            99.9
5  CCCC1(CCc2ccccc2)CC(O)=C(C(CC)c2cccc(NS(=O)(=O)c3ccc(C#N)cc3)c2)C(=O)O1 (stereo not drawn)             105
6  CCCC1(CCC)CC(O)=C(C(c2cccc(NS(=O)(=O)c3ccc(C#N)cc3)c2)C2CC2)C(=O)O1 (stereo not drawn)             112
7  CC(C)CC(c1cccc(NS(=O)(=O)c2cn(C)cn2)c1)c1c(O)c2c(oc1=O)CCCCCC2 (single isomer, unassigned) [Example 9]             105
8  CC[C@H](Cc1ccccc1)c1cc(O)c(C(c2cccc(NS(=O)(=O)c3nc4ccccc4[nH]3)c2)C2CC2)c(=O)o1 (stereo partly drawn)             103
9  CCC(CCN=[N+]=[N-])c1cc(O)c(C(c2cccc(NS(=O)(=O)c3cn(C)cn3)c2)C2CC2)c(=O)o1 (stereo not drawn)             101

Hey, quick one: what's inhibition at 3.3 µM for each of these?
1. CCCC1(CCC)CC(O)=C(C(CC)c2cccc(NS(=O)(=O)c3ccc(C#N)cn3)c2)C(=O)O1 (stereo not drawn)
2. CCCC1(CCc2ccc(F)cc2)CC(O)=C(C(c2cccc(NS(=O)(=O)c3cn(C)cn3)c2)C(C)(C)C)C(=O)O1 (stereo not drawn)
3. CC(C)CC(c1cccc(NS(=O)(=O)c2cn(C)cn2)c1)c1c(O)c2c(oc1=O)CCCCCC2 (single isomer, unassigned) [Example 8]
4. CC[C@H](Cc1ccccc1)c1cc(O)c(C(c2cccc(NS(=O)(=O)c3cn(C)cn3)c2)C2CC2)c(=O)o1 (single isomer, unassigned) [Example 137]
5. CCC(CCOCCOC)c1cc(O)c(C(c2cccc(NS(=O)(=O)c3cn(C)cn3)c2)C2CC2)c(=O)o1 (stereo not drawn)
6. Cc1ccc(S(=O)(=O)Cc2cccc(C(c3c(O)c4c(oc3=O)CCCCCC4)C3CC3)c2)cc1 (stereo not drawn)
7. CCCC1(CCC)CC(O)=C(C(CC)c2cccc(NS(=O)(=O)c3cccc4cccnc34)c2)C(=O)O1 (stereo not drawn) [Example 43]
8. CCCC1(CCc2ccccc2)CC(O)=C(C(c2cccc(NS(=O)(=O)c3cccc4cccnc34)c2)C2CC2)C(=O)O1 (stereo not drawn)

Given back:
1. 95.4
2. 101
3. 110
4. 110
5. 111
6. 95.5
7. 96.7
8. 101

Hey, quick one: what's inhibition at 3.3 µM for each of these?
1. CCCC1(CCC)CC(O)=C(C(c2cccc(NS(=O)(=O)c3cccc4cccnc34)c2)C2CC2)C(=O)O1 (stereo not drawn)
2. CCCC1(CCc2ccccc2)CC(O)=C(C(c2cccc(NS(=O)(=O)c3ccc(C#N)cc3)c2)C2CC2)C(=O)O1 (stereo not drawn)

Given back:
1: 106; 2: 95.9

----------
Record form. Attribute: inhibition at 10 µM. Fill in for each entry.
- Subject of test: UniProtKB P04585
- Method notes: biochemical
- Condition summary: Table I; Dose 10.000 μM; read-out: Protease % Inhib
One number for each entry, in %.

Recorded results for 3 compounds are shown here.
>>> df
                                   compound  unit_spec  value_observed
0  CCCC1(CCC)CC(O)=C(C(c2cccc(NS(=O)(=O)c3cn(C)cn3)c2)C2CC2)C(=O)O1 (stereo not shown) [Example 48]          %             111
1  CCCC1(CCC)CC(O)=C(C(CC)c2cccc(NS(=O)(=O)c3cccc4cccnc34)c2)C(=O)O1 (single isomer, unassigned) [Example 52]          %            97.2
2  COCCOCCCc1cc(O)c(C(c2cccc(NS(=O)(=O)c3cn(C)cn3)c2)C2CC2)c(=O)o1 (stereo not shown)          %            96.4

Okay, next one:
The reported inhibition at 10 µM of the compound CCCC1(CCC)CC(O)=C(C(c2cccc(NS(=O)(=O)c3ccc(F)cc3)c2)C2CC2)C(=O)O1 (stereo not shown) was 95.1

----------
- Subject of test: UniProtKB P04585
- Method notes: biochemical
- Condition summary: Table I; Dose 10.000 μM; read-out: Protease % Inhib
Record form. Attribute: inhibition at 10 µM. Fill in for each entry.

Hey, quick one: what's inhibition at 10 µM for each of these?
1. CC[C@H](Cc1ccccc1)c1cc(O)c(C(c2cccc(NS(=O)(=O)c3cn(C)cn3)c2)C2CC2)c(=O)o1 (single isomer, unassigned) [Example 137]
2. CCC(CC1CCOCC1)c1cc(O)c(C(c2cccc(NS(=O)(=O)c3nccn3C)c2)C2CC2)c(=O)o1 (stereo not shown)
3. CCCCCC1(CCCCC)CC(O)=C(C(CC)c2cccc(NS(=O)(=O)c3ccc(C#N)cc3)c2)C(=O)O1 (stereo not shown)

Given back:
1. 98.2%
2. 96.8%
3. 82%

----------
- Subject of test: HIV-1 protease (Human immunodeficiency virus type 1 group M subtype B)
- Method notes: biochemical
- Condition summary: Table II; enzyme HIV-1; DOSE 0.370 (unit not given)
Observable: PROTEASE % INHIB.

Molecule	Subject of test	Value observed
Cn1cnc(S(=O)(=O)Nc2cccc(C(C3=C(O)CC(CCc4ccccc4)(CCC(F)(F)F)OC3=O)C(C)(C)C)c2)c1 (single isomer, unassigned) [Example 276]	HIV-1 protease (Human immunodeficiency virus type 1 group M subtype B)	38.95%
CCC[C@@]1(CCc2ccc(F)cc2)CC(O)=C([C@H](c2cccc(NS(=O)(=O)c3ccc(C#N)cn3)c2)C(C)(C)C)C(=O)O1 (single isomer, unassigned) [Example 347]	HIV-1 protease (Human immunodeficiency virus type 1 group M subtype B)	50.82%
CC(C)(C)C(C1=C(O)CC(CCc2ccccc2)(CCc2ccccc2)OC1=O)c1cccc(NS(=O)(=O)c2ccc(N)cn2)c1 (single isomer, unassigned) [Example 355]	HIV-1 protease (Human immunodeficiency virus type 1 group M subtype B)	< 10%
CCCC1(CCC)CC(O)=C(C(c2cccc(NS(=O)(=O)c3ccc(C(F)(F)F)cn3)c2)C(C)(C)C)C(=O)O1 (single isomer, unassigned) [Example 286]	HIV-1 protease (Human immunodeficiency virus type 1 group M subtype B)	68.74%
CCCC1(CCc2ccc(F)cc2)CC(O)=C(C(CC)c2cccc(NS(=O)(=O)c3ccc(C(N)=O)cn3)c2)C(=O)O1 (stereo not drawn) [Example 332]	HIV-1 protease (Human immunodeficiency virus type 1 group M subtype B)	85.65%

Hey, quick one: what's PROTEASE % INHIB. for each of these?
1. Cn1cnc(S(=O)(=O)Nc2cccc(C(C3=C(O)CC(CCc4ccccc4)(CCC(F)(F)F)OC3=O)C(C)(C)C)c2)c1 (single isomer, unassigned) [Example 270]
2. CCC(C1=C(O)CC(CCc2ccc(F)cc2)(CCc2ccc(F)cc2)OC1=O)c1cccc(NS(=O)(=O)c2ccc(C(N)=O)cn2)c1 (stereo not drawn) [Example 333]
3. CCCC1(CCC)CC(O)=C(C(CC)c2cccc(NS(=O)(=O)c3ccc(C(N)=O)cn3)c2)C(=O)O1 (stereo not drawn) [Example 334]
4. N#Cc1ccc(S(=O)(=O)Nc2cccc(CC3=C(O)CC(CCc4ccccc4)(CCc4ccccc4)OC3=O)c2)nc1 [Example 353]
5. CC(C)(C)C(C1=C(O)CC(CCc2ccccc2)(CCc2ccccc2)OC1=O)c1cccc(NS(=O)(=O)c2ccc(N)cn2)c1 (single isomer, unassigned) [Example 356]
6. CCC[C@@]1(CCc2ccc(F)cc2)CC(O)=C([C@@H](c2cccc(NS(=O)(=O)c3ccc(N)cn3)c2)C(C)(C)C)C(=O)O1 (single isomer, unassigned) [Example 317]
7. CCC(C1=C(O)CC(CC(C)C)(CC(C)C)OC1=O)c1cccc(NS(=O)(=O)c2ccc(C#N)cn2)c1 (racemic) [Example 304]

Given back:
1: 85.62%; 2: 85.07%; 3: 90.25%; 4: 68.49%; 5: 71.75%; 6: 94.14%; 7: 93.28%

Hello, the source for this data is patent US6169181A, in case you need it.
